# System: LMP1 expression in Kem I cells
# ASSAY SUMMARY: microbe, parasite or virus in culture
# Type: cell-based, EBV
# STATED CONDITIONS: human gammaherpesvirus 4, 48 h, read-out: Replicate 1-LMP1 Fold Increase, Kem I cells, 2.5 uM, 48 hours, fold change in LMP1 transcript vs vehicle
Counter-ions that a name gives are not always drawn.
Threshold check on fold induction at 2.5 µM: at or above 0.7 gives yes, strictly below gives no.

These solved cases illustrate the format of a correct answer.
[[record]]
molecule = "COc1ccc([C@]2(C#N)CC[C@@H](C(=O)O)CC2)cc1OC1CCCC1 [Cilomilast]"
tested_on = "LMP1 expression in Kem I cells"
assigned_category = "yes"

[[record]]
molecule = "O=C(C[S+]([O-])Cc1ccco1)NC/C=C\\COc1cc(CN2CCCCC2)ccn1 (stereo not drawn) [Lafutidine]"
tested_on = "LMP1 expression in Kem I cells"
assigned_category = "yes"


Req: Dear colleague, could you confirm whether Cc1c(-c2ccc(O)cc2)n(Cc2ccc(OCCN3CCCCCC3)cc2)c2ccc(O)cc12 [Bazedoxifene HCl] has fold induction at 2.5 µM at or above 0.7?
Resp: no

Req: Dear colleague, could you confirm whether COc1cc(N2CCC(N3CCN(C)CC3)CC2)ccc1Nc1ncc(Cl)c(Nc2ccccc2P(C)(C)=O)n1 [AP26113] has fold induction at 2.5 µM at or above 0.7?
Resp: yes

Req: Dear colleague, could you confirm whether CC(C)n1c(/C=C/C(O)CC(O)CC(=O)O)c(-c2ccc(F)cc2)c2ccccc21 (stereo not drawn) [Fluvastatin Sodium] has fold induction at 2.5 µM at or above 0.7?
Resp: yes

Req: Dear colleague, could you confirm whether COCCCC/C(=N\OCCN)c1ccc(C(F)(F)F)cc1 [Fluvoxamine maleate] has fold induction at 2.5 µM at or above 0.7?
Resp: yes

Req: Dear colleague, could you confirm whether Nc1nc(OCc2cc(Br)cs2)c2[nH]cnc2n1 [Lomeguatrib] has fold induction at 2.5 µM at or above 0.7?
Resp: no

---

Kindly supply the reported fold induction at 2.5 µM values for the records listed here.
# System: LMP1 expression in Kem I cells
# ASSAY SUMMARY: microbe, parasite or virus in culture
# Type: cell-based, EBV
# STATED CONDITIONS: human gammaherpesvirus 4, 48 h, read-out: Replicate 1-LMP1 Fold Increase, Kem I cells, 2.5 uM, 48 hours, fold change in LMP1 transcript vs vehicle
Where a name gives a salt, the structure may show the parent alone.

Below, 6 molecules whose answers are already recorded.
[[record]]
molecule = "CCc1nc(N)nc(N)c1-c1ccc(Cl)cc1"
result = 0.7

[[record]]
molecule = "Nc1cccc2c1C(=O)N(C1CCC(=O)NC1=O)C2=O (stereo not shown) [Pomalidomide]"
result = 3.72

[[record]]
molecule = "CC(=O)OCC(=O)NCCCOc1cccc(CN2CCCCC2)c1 [Roxatidine Acetate HCl]"
result = 0.15

[[record]]
molecule = "Cc1nc(C(=O)NCC(=O)O)c(O)c2ccc(Oc3ccccc3)cc12"
result = 0.19

[[record]]
molecule = "C[C@@H]1O[C@@H](O[C@H]2C[C@@H](O)[C@]3(CO)[C@H]4[C@H](O)C[C@]5(C)[C@@H](C6=CC(=O)OC6)CC[C@]5(O)[C@@H]4CC[C@]3(O)C2)[C@H](O)[C@H](O)[C@H]1O"
result = 22.8

[[record]]
molecule = "O=C(N/N=C/c1ccc(O)c(O)c1)c1cc2ccccc2cc1O"
result = 0.64


Req: # get_value(readout='fold induction at 2.5 µM', item= COc1cccc2c1C(=O)c1c(O)c3c(c(O)c1C2=O)C[C@@](O)(C(C)=O)C[C@@H]3O[C@H]1C[C@H](N)[C@H](O)[C@H](C)O1 [Daunorubicin HCl] )
Resp: 221

---

# System: LMP1 expression in Kem I cells
# ASSAY SUMMARY: microbe, parasite or virus in culture
# Type: cell-based, EBV
# STATED CONDITIONS: human gammaherpesvirus 4, 48 h, read-out: Replicate 2-LMP1 Fold Increase, Kem I cells, 2.5 uM, 48 hours, fold change in LMP1 transcript vs vehicle
Where a name gives a salt, the structure may show the parent alone.
Kindly supply the reported fold induction at 2.5 µM values for the records listed here.
Answers are plain numbers.

[[record]]
compound = "CCOC(=O)C1=C(C)NC(C)=C(C(=O)OC)C1c1cccc(Cl)c1Cl (centres unmarked) [Felodipine]"
tested_on = "LMP1 expression in Kem I cells"
result_number = 0.69

[[record]]
compound = "CN[C@H]1CC[C@@H](c2ccc(Cl)c(Cl)c2)c2ccccc21 [Sertraline HCl]"
tested_on = "LMP1 expression in Kem I cells"
result_number = 1.33

[[record]]
compound = "C[C@@H]1CN(CC(=O)Nc2ccc3c(c2)Cc2cccc(-c4cc(=O)cc(N5CCOCC5)o4)c2S3)C[C@H](C)O1 [KU-60019]"
tested_on = "LMP1 expression in Kem I cells"
result_number = 0.53


# batch: return fold induction at 2.5 µM for each of the 5 compounds below
1. CCNC(=O)[C@H]1O[C@@H](n2cnc3c(N)nc(NCCc4ccc(CCC(=O)O)cc4)nc32)[C@H](O)[C@@H]1O [CGS 21680 HCl]
2. COc1ccc(-c2nc3ccc(C4=NNC(=O)CC4C)cc3[nH]2)cc1 (centres unmarked) [Pimobendan]
3. C=C1C[C@@H]2[C@H](CC[C@]3(C)C(=O)CC[C@@H]23)[C@@]2(C)C=CC(=O)C=C12 [Exemestane]
4. Nc1ccc(C(=O)O)c(O)c1 [Sodium 4-Aminosalicylate]
5. COc1ccc(-n2nc(C(N)=O)c3c2C(=O)N(c2ccc(N4CCCCC4=O)cc2)CC3)cc1 [Apixaban]

Resp:
[0.68, 0.64, 0.86, 0.53, 0.24]

---

# Test system: LMP1 expression in Kem I cells
# ASSAY SUMMARY: microbe, parasite or virus in culture
# Type: cell-based, EBV
# STATED CONDITIONS: human gammaherpesvirus 4, 48 h, read-out: Replicate 1-LMP1 Fold Increase, Kem I cells, 2.5 uM, 48 hours, fold change in LMP1 transcript vs vehicle
Where a name gives a salt, the structure may show the parent alone.
Kindly supply the reported fold induction at 2.5 µM values for the records listed here.

Below, 3 compounds whose answers are already recorded.
[[record]]
compound = "CCCCCCCCCCCC1=C(O)C(=O)C=C(O)C1=O"
tested_on = "LMP1 expression in Kem I cells"
property_measured = "fold induction at 2.5 µM"
result = 0.43

[[record]]
compound = "CCN(CC)C(=O)c1ccc(C2=CC3(CCNCC3)Oc3cccc(O)c32)cc1 [ADL5859 HCl]"
tested_on = "LMP1 expression in Kem I cells"
property_measured = "fold induction at 2.5 µM"
result = 0.54

[[record]]
compound = "Nc1ccc(C(=O)O)c(O)c1 [Sodium 4-Aminosalicylate]"
tested_on = "LMP1 expression in Kem I cells"
property_measured = "fold induction at 2.5 µM"
result = 0.19


# batch: return fold induction at 2.5 µM for each of the 2 compounds below
1. Oc1c2ccccc2c2c3c(cccc13)N=N2
2. CCOC(=O)[C@H](CCc1ccccc1)N[C@@H](C)C(=O)N1C(=O)N(C)C[C@H]1C(=O)O [Imidapril HCl]

Resp:
1. 0.67
2. 0.88

---

# System: LMP1 expression in Kem I cells
# ASSAY SUMMARY: microbe, parasite or virus in culture
# Type: cell-based, EBV
# STATED CONDITIONS: human gammaherpesvirus 4, 48 h, read-out: Replicate 1-LMP1 Fold Increase, Kem I cells, 2.5 uM, 48 hours, fold change in LMP1 transcript vs vehicle
PROPERTY MEASURED: fold induction at 2.5 µM
Numbers only.

Below, 4 molecules whose answers are already recorded.
[[record]]
molecule = "Oc1ncnc2[nH]ncc12"
property_measured = "fold induction at 2.5 µM"
result_number = 0.09

[[record]]
molecule = "C=C1C(=O)O[C@@H]2/C=C(\\C)CC/C=C(\\C)CC[C@@H]12 [Costunolide]"
property_measured = "fold induction at 2.5 µM"
result_number = 0.79

[[record]]
molecule = "CC[C@@H]1C(=O)N(C)c2cnc(Nc3ccc(C(=O)NC4CCN(C)CC4)cc3OC)nc2N1C1CCCC1"
property_measured = "fold induction at 2.5 µM"
result_number = 23.3

[[record]]
molecule = "COc1ccc(C2CNC(=O)C2)cc1OC1CCCC1 (centres unmarked)"
property_measured = "fold induction at 2.5 µM"
result_number = 1.13


Req: # get_value(readout='fold induction at 2.5 µM', item= Cc1ccccc1C(C(=O)NC1CCCCC1)N(C(=O)Cn1ccnc1C)c1cccc(F)c1 (centres unmarked) )
Resp: 0.71

---

# Test system: LMP1 expression in Kem I cells
# ASSAY SUMMARY: microbe, parasite or virus in culture
# Format: cell-based, EBV
# STATED CONDITIONS: human gammaherpesvirus 4, 48 h, read-out: Replicate 2-LMP1 Fold Increase, Kem I cells, 2.5 uM, 48 hours, fold change in LMP1 transcript vs vehicle
Counter-ions that a name gives are not always drawn.
PROPERTY MEASURED: fold induction at 2.5 µM

Below, 8 molecules whose answers are already recorded.
[[record]]
molecule = "CC(=O)OCC(=O)NCCCOc1cccc(CN2CCCCC2)c1 [Roxatidine Acetate HCl]"
tested_on = "LMP1 expression in Kem I cells"
result = 0.24

[[record]]
molecule = "CNC(=O)c1cc(Oc2ccc(NC(=O)Nc3ccc(Cl)c(C(F)(F)F)c3)cc2)ccn1"
tested_on = "LMP1 expression in Kem I cells"
result = 0.64

[[record]]
molecule = "O=C(Nc1cccc(C(F)(F)F)c1)Nc1cc(S(=O)(=O)NC2CC2)ccc1-c1ccsc1"
tested_on = "LMP1 expression in Kem I cells"
result = 2.6

[[record]]
molecule = "O=C(N/N=C/c1ccc(O)c(O)c1)c1cc2ccccc2cc1O"
tested_on = "LMP1 expression in Kem I cells"
result = 0.89

[[record]]
molecule = "COc1cccc2c1C(=O)c1c(O)c3c(c(O)c1C2=O)C[C@@](O)(C(C)=O)C[C@@H]3O[C@H]1C[C@H](N)[C@H](O)[C@H](C)O1 [Daunorubicin HCl]"
tested_on = "LMP1 expression in Kem I cells"
result = 262

[[record]]
molecule = "COc1ccccc1N1CCN(CC(O)COc2cccc3ccccc23)CC1 (centres unmarked)"
tested_on = "LMP1 expression in Kem I cells"
result = 0.95

[[record]]
molecule = "CN1CCC[C@@H]1CCO[C@](C)(c1ccccc1)c1ccc(Cl)cc1 [Clemastine Fumarate]"
tested_on = "LMP1 expression in Kem I cells"
result = 0.69

[[record]]
molecule = "CCOc1ccc(Cc2cc([C@@H]3O[C@H](CO)[C@@H](O)[C@H](O)[C@H]3O)ccc2Cl)cc1"
tested_on = "LMP1 expression in Kem I cells"
result = 1.34


# batch: return fold induction at 2.5 µM for each of the 6 molecules below
1. CC(C)n1c(/C=C/C(O)CC(O)CC(=O)O)c(-c2ccc(F)cc2)c2ccccc21 (centres unmarked) [Fluvastatin Sodium]
2. O=C(/C=C/c1ccc(O)c(O)c1)OCCc1ccccc1
3. C[C@@H](NCCCc1cccc(C(F)(F)F)c1)c1cccc2ccccc12 [Cinacalcet HCl]
4. COc1ccccc1OCCNCC(O)COc1cccc2[nH]c3ccccc3c12 (centres unmarked)
5. Nc1nc(CC(=O)Nc2ccc(CCNC[C@H](O)c3ccccc3)cc2)cs1
6. COCCOc1ccc2c(c1)ncn2-c1ccc2cccc(N3CCC(N)CC3)c2n1

Resp:
1.04
0.33
0.34
0.87
0.76
0.45

# batch: return fold induction at 2.5 µM for each of the 6 molecules below
1. Cc1c(C(=O)NN2CCCCC2)nn(-c2ccc(Cl)cc2Cl)c1-c1ccc(Cl)cc1
2. Cc1cc2c(C(C)C)c(O)c(O)c(C=O)c2c(O)c1-c1c(C)cc2c(C(C)C)c(O)c(O)c(C=O)c2c1O
3. CC(C)N(CCCNC(=O)Nc1ccc(C(C)(C)C)cc1)C[C@H]1O[C@@H](n2cc(Br)c3c(N)ncnc32)[C@H](O)[C@@H]1O
4. Cc1cc(Nc2ncc(Cl)c(Nc3ccccc3S(=O)(=O)C(C)C)n2)c(OC(C)C)cc1C1CCNCC1
5. CC[C@H](NC(=O)[C@H](C)NC)C(=O)N1C[C@@H](O)C[C@H]1Cc1c(-c2[nH]c3cc(F)ccc3c2C[C@@H]2C[C@H](O)CN2C(=O)[C@H](CC)NC(=O)[C@H](C)NC)[nH]c2cc(F)ccc12
6. C#Cc1cccc(Nc2ncnc3cc4c(cc23)OCCOCCOCCO4)c1

Resp:
1: 0.54; 2: 1.58; 3: 0.31; 4: 0.49; 5: 1.02; 6: 0.34

# batch: return fold induction at 2.5 µM for each of the 3 molecules below
1. COc1ccccc1Oc1c(NS(=O)(=O)c2ccc(C(C)(C)C)cc2)nc(-c2ncccn2)nc1OCCO [Bosentan Hydrate]
2. CC(=O)Nc1nc2c(Oc3cc(-c4ccc(C(F)(F)F)cc4)ncn3)cccc2s1
3. Cc1ccc(-c2cc(C(F)(F)F)nn2-c2ccc(S(N)(=O)=O)cc2)cc1

Resp:
1. 0.4
2. 0.48
3. 0.62

# batch: return fold induction at 2.5 µM for each of the 5 molecules below
1. CCOC(=O)[C@H](CCc1ccccc1)N[C@@H](C)C(=O)N1C(=O)N(C)C[C@H]1C(=O)O [Imidapril HCl]
2. Cc1[nH]c(/C=C2\C(=O)Nc3ccc(S(=O)(=O)N(C)c4cccc(Cl)c4)cc32)c(C)c1C(=O)N1CCN(C)CC1
3. O=C(NOC[C@H](O)CO)c1ccc(F)c(F)c1Nc1ccc(I)cc1F
4. CC1=C(/C=C/C(C)=C/C=C/C(C)=C\C(=O)O)C(C)(C)CCC1
5. COc1ccc([C@]2(C#N)CC[C@@H](C(=O)O)CC2)cc1OC1CCCC1

Resp:
1: 0.44; 2: 0.82; 3: 0.27; 4: 2.1; 5: 1.18
